pKi: −log10 of the molar value.
Hi, quick share: literature pKi data for HPK1 (Homo sapiens (Human), UniProt Q92918), several sources combined.

Compound: COc1cc(N2CCN(C)CC2)ccc1C(=O)Nc1n[nH]c2cnc(-c3c(F)cc(CNC(C)C)cc3F)cc12
pKi: ≥ 7.00
//
Compound: COc1cccc(F)c1-c1ncc2[nH]nc(-c3cccc(N4CCOCC4)c3)c2n1
pKi: ≥ 7.00
//
Compound: CCN1CCN(c2ccc(-c3n[nH]c4cnc(-c5c(F)cc(CNC)cc5F)nc34)cc2)CC1
pKi: ≥ 7.00
//
Compound: CC(C)NCc1cc(F)c(-c2cc3c(C(=O)Nc4ccc(N5CCN(C)CC5)cc4)n[nH]c3cn2)c(F)c1
pKi: ≥ 7.00
//
Compound: CN1CCN(c2ncc(-c3n[nH]c4cnc(-c5c(F)cc6c(c5F)CNCC6)nc34)cn2)CC1
pKi: ≥ 7.00
//
Compound: CN1CCN(c2ccc(-c3n[nH]c4ccc(-c5cnc6nccnc6c5)nc34)cc2)CC1
pKi: ≥ 7.00
//
Compound: CC(=O)Nc1ccccc1-c1ccc2[nH]nc(-c3ccc(N4CCN(C)CC4)cc3)c2n1
pKi: 5.00 to 6.30
//
Compound: CNCc1cc(F)c(-c2ncc3[nH]nc(-c4cnn(C)c4)c3n2)c(OC)c1
pKi: ≥ 7.00
//
Compound: COc1cccc(F)c1-c1ncc2[nH]nc(-c3ccn(C)c(=O)c3)c2n1
pKi: ≥ 7.00
//
Compound: Nc1cc(-c2cnc3c(c2Cl)C2(CC2)CN3)cc(-c2ncccc2CO)c1
pKi: 8.21
//
Compound: Cc1ccncc1-c1cc(Cl)c2nnc(NC(=O)C3CC3)cc2c1
pKi: < 6.00
//
Compound: CN1CCN(c2cc(Cl)cc3c(-c4cnc5c(c4)C4(CC4)CN5)c[nH]c23)C(=O)C1
pKi: 7.97
//
Compound: COc1cccc(F)c1-c1nccc(C(=O)Nc2ccc3c(cnn3C)c2N(C)CC2CCCO2)n1 (stereo not drawn)
pKi: ≥ 7.00
//
Compound: O=C1NCCN1c1cccc(-c2cnc3c(c2Cl)C2(CC2)CN3)c1
pKi: 7.07
//
Compound: CN1CCN(c2ccc(-c3n[nH]c4ccc(-c5cnc6cnn(C)c6c5)nc34)cc2)CC1
pKi: ≥ 7.00
//
Compound: CNC1CCCc2c1ccc(F)c2-c1cc2c(-c3ccc(N4CCN(C)CC4)nc3)n[nH]c2cn1 (stereo not drawn)
pKi: ≥ 7.00
//
Compound: CC(=O)NCCc1ccc(-c2cnc3c(c2Cl)C2(CC=CC2)CN3)cc1
pKi: 6.54
//
Compound: Cc1c2c(cc(F)c1-c1ncc3[nH]nc(-c4ccc(N5CCOCC5)nc4)c3n1)CCNC2
pKi: ≥ 7.00
//
Compound: CNCc1cc(F)c(-c2cc3c(-c4ccc(N5CCC(F)C5)cn4)n[nH]c3cn2)c(F)c1 (stereo not drawn)
pKi: ≥ 7.00
//
Compound: Cn1cc(-c2n[nH]c3cnc(-c4c(F)cc(NC(=O)CN5CC6(CCOCC6)C5)cc4F)cc23)cn1
pKi: ≥ 7.00
//
Compound: CN(CCO)C(=O)c1c(N)ccc(-c2cnc3c(c2Cl)C2(CCC2)CN3)c1F
pKi: 8.36
//
Compound: CN(C)C(=O)c1c(N)ccc(-c2cnc3c(c2)C2(CC2)CN3)c1F
pKi: 7.64
//
Compound: CNCc1cc(F)c(-c2ncc3[nH]nc(-c4ccnc(N5CCOCC5)c4F)c3n2)c(F)c1
pKi: ≥ 7.00
//
Compound: CN(Cc1cnn(CCO)c1)C(=O)c1cccc(-c2cnc3c(c2Cl)C2(CC=CC2)CN3)c1F
pKi: 7.92
//
Compound: CNCc1cc(F)c(-c2cc3c(-c4cnn(C)c4)n[nH]c3cn2)c(F)c1
pKi: ≥ 7.00
//
Compound: CCc1ccncc1-c1cc(N)c2nnc(NC(=O)NC(C)C)cc2c1
pKi: 8.10
//
Compound: CN(C)C(=O)c1c(N)ccc(-c2cnc3c(c2Cl)C2(CN3)CC2CO)c1F (stereo not drawn)
pKi: 7.76
